B1: ZNF263 (parent)
chain: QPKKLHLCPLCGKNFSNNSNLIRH

- Variants of: B1
- assay_summary: protein stability index of a GFP-peptide fusion (GPS, HEK-293T) (PSI 1-6); higher = more stable;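 further: lentivirally expressed fusions sorted by FACS into six bins by GFP to DsRed ratio, PSI derived from sequencing read proportions per bin multiplied by bin number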
- setup_conditions: c terminus: a fixed tail appended
Answer each item with its documented protein stability index.

GET /value?item= `L7V` &field=protein stability index returns 3.04

GET /value?item= `I22G` &field=protein stability index returns 1.98

GET /value?item= `Q1C` &field=protein stability index returns 2.69

GET /value?item= `H24R` &field=protein stability index returns 2.07

GET /value?item= `G12N` &field=protein stability index returns 2.45

GET /value?item= `N14P` &field=protein stability index returns 2.61

GET /value?item= `K4Y` &field=protein stability index returns 2.44

GET /value?item= `P2S` &field=protein stability index returns 2.53

GET /value?item= `N20W` &field=protein stability index returns 1.57

GET /value?item= `I22C` &field=protein stability index returns 4.04

GET /value?item= `H6L` &field=protein stability index returns 2.19

GET /value?item= `S19W` &field=protein stability index returns 2.67

GET /value?item= `H24K` &field=protein stability index returns 2.64

GET /value?item= `N14L` &field=protein stability index returns 2.84

GET /value?item= `Q1M` &field=protein stability index returns 2.6
